- EXPERIMENTAL_SYSTEM: Paired box protein Pax-2 (Homo sapiens, UniProt Q02962)
- Sequence (Q02962 whole entry): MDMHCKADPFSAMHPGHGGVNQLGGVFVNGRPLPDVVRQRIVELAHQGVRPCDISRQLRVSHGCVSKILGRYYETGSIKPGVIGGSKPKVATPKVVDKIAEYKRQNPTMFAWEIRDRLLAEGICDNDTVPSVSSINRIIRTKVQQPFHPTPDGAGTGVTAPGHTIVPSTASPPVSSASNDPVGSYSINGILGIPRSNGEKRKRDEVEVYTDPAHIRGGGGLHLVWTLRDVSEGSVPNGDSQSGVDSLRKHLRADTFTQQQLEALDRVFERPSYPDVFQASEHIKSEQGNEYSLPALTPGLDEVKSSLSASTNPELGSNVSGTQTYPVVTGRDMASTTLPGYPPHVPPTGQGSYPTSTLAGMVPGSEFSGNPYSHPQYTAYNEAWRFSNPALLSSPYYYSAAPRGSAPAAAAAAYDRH
- ASSAY_OVERVIEW: Inhibition of pax2 (unknown origin) in human SK-OV-3 cells measured after 24 hrs by immunoblotting analysis
ASSAY_METRIC: IC50 (µM)
// note: answer is a bare numeric in µM

Recorded IC50 of Cc1ccc(C)c(N2CCN(c3c(C)c(C)nc4ncnn34)CC2)c1 , please.
1.5
